B1: TPR t1 (parent)
chain: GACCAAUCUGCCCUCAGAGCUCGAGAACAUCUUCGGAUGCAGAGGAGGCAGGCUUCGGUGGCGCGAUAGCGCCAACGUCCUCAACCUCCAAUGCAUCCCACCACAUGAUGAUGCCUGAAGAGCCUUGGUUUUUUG

# Variants of: B1
# experimentDescription: polymerase ribozyme fitness, log enrichment relative to wild type (log ratio); higher = more active; in vitro selection for triplet polymerase activity
Use label 1 when the recorded polymerase ribozyme fitness (log ratio) is no lower than -2; use label 0 when it is lower.

itemSequence	assignedCategory
GACCAAUCUGCCCUCAGAGCUCGAGAACAUCUUCGGAUGCAGAGGAGGCAGGCUUCGGUGGAGCGAUAGCGCCAACGUCCUCAACCUCCAAUGCAUCCCAACACAUGAUGCUGCCUGAAGAGCCUUGGUUUUUUG [C62A C101A A111C]	label 1
GACCAAUCUGCCCUCAGAGCUCGAGACCAUCUUCGGAUGCAGAGGAGGCAGGCCUCGGUGGCGCGAUAGCGCCAACGUCCUCAACCUCCAAUGCAUCCCACCACAUGAUGAUGCCUGAAGAGCCUUGGUUUUUUG [A27C U54C]	label 0
GACCAAUCUGCCCUCAGAGCACGAGAACAUCUUCGGAUGCAGAGGAGGCAGGCUUCGGUGGCGCGAUAGCGCCAACGUCCUCAACCUCCAAUGCAUCCCACCACAUGAUGAUGCCUGAAGAGCCUUGGUUUUUUU [U21A G135U]	label 1
GACCAAUCUGCCCUCAGAGCUCGAGAACAUCUUCGGAUGCAGAGGAGGCAGGCUUCGGUGGCGCGAUAGCGCCAACGUCCUCAACCUCCAAUGCAUCCCACCACAUGAUGAUGCCUCAACAGCCUUGGUUUUUUG [G117C G120C]	label 0
GACCAAUCUGCCAUCAGAGCCCGAGAACAUCUUCGGAUGCAGAGGAGGCAGGCUUCAGGGGCGCGAUAGCGCCAUCGUCCUCAACUUCCAAUGCAUUCCACCACAUGAUGAUGCCUGAAGAGCCUUGGUUUUUUG [C13A U21C G57A U59G A75U C86U C97U]	label 0
GACCAAUCUGCCCUCAGAGCUCGAGAGCAUCUUCGGAUGCAGAGGAGGCAGGCUUCGGUGGCGCGAUAGCGCCAACGUCCUCAACCUCCAAUGCAUCCCACCACAUGAUGAUGCUUGAAGAGCCUUGGUUUUUUG [A27G C115U]	label 0
GACCAAUCUGCCCUCAGAGCUCGAGAACAUCUUCGGAUGCAGAGCAGGCAGGCUUAGGUGGCGCGAUAGCGCCAACGUCCUCAACCUCCAAUGCAUCUCACCACAUGAUGAUGCCUGAAGAGCCUUGGUUUUUUG [G45C C56A C98U]	label 0
GACCAAUCUGCCCUCUGAGCUCGAGAACAUCUUCGGAUGCAGAGGAGGCAGGCUUCGGUGGCGCGAUAGCGCCAACGUCCUCAACCUCCAAUGCAUCCCACCACAUGAUGAUGCCUGAAGAGCAUUGGUUUUUUG [A16U C124A]	label 1
GACCAAUCUGCCCUCAGAGCUCGAGAACAUCUUCGGAUGUAGAGGAGGCAGGCUUCGGUGUCGCGAUAGCGCCAACGUCCUCAACCUCCAAUGCAUCCCACCACAUGAUGAUGCCUGAUGAUCCUUGGUUUUUUG [C40U G61U A119U G122U]	label 1
GACCAAUCUGCCCUCAGAGCUCGAGAACAUCUUCGGAUGCAGAGGAGGCAGGCUUCGGUGGGGCGAUAGCGCCAACGUCCUCAACCUCCAAUGCAUCCCACCACAUGAUGAUGCCUGAUGAGCCUUGCUUUUUUG [C62G A119U G128C]	label 0

For this variant, is measured polymerase ribozyme fitness (log ratio) -2 or higher? GACCAAUCUGCCCUCAGAGCUCGAGAACAUCUUCGGAUGCAGAGGAGGCAGGCUUCGGUGGCGCGAUAGCUCCAACGUCCUCAACCUCCAAUGCAUCCCACCACAUGAUGAUCCCUGAAGAGCCUUGGUUUUUUG [G71U G113C]
label 1

For this variant, is measured polymerase ribozyme fitness (log ratio) -2 or higher? GACCAAUCUGCCCUCAGAGCUCGAGAACAUCUUCGGAUGCAGAUGAGGCAGGCUUCGGUGUCGCGAUAGCGCCAACGUCCUCAACCUCCAAUGCAUCCCACCACAUGAUGUUGCCUGAAGAGCCUUGGUUUUUUG [G44U G61U A111U]
label 0

For this variant, is measured polymerase ribozyme fitness (log ratio) -2 or higher? GACCAAUCUGCCCUCAGAGCUCGAGAACAUCUUCGGAUGCUGGGGAGACAGGCUUCGGUGGCACGAUAGCGCCAACGUCCUCAACCUCCGAUGCAUCCCACCAUAUGAUGAUGCCUGAAUAGCCUUGGUUUUUUG [A41U A43G G48A G63A A90G C104U G120U]
label 0

For this variant, is measured polymerase ribozyme fitness (log ratio) -2 or higher? GACCAAUCUGCCCUCAGAGGUCGAGAACAUCUUCGGAUGCAGAGGAGGCAGGCUUCGGUGGCGCGAUAGCGCCAACGUCCUCAACCUCCAAUCCAUCCCACCACAUGAUGAUGCCUGAAGAGCCUUGGUUUUUUG [C20G G93C]
label 0

For this variant, is measured polymerase ribozyme fitness (log ratio) -2 or higher? GACCAAUCUGCCCUCAGAGCUCGAGAACAUCUUCGGAUGCAGAGGAGGCAAGCUUCGGUGGCGCGAUAGCGCCAACGUCCUCAACCUCCAAUUCAUCCCACCACAUGAUGAUGCCUGAAGAGCCUUGGUUUUUUG [G51A G93U]
label 0

For this variant, is measured polymerase ribozyme fitness (log ratio) -2 or higher? GACCAAUCUGCCCUCAGAGCUCGAGAACAUCUUCGGAUGCUGAGGAGGCAGGCUUCGGUGGCGCGAUAGCGCCAACGUCCACAACCUCCAAUGCAUCCCACCACAUGAUGAUGCCUGAAGCGCCUUGGUUUUUUG [A41U U81A A121C]
label 1

For this variant, is measured polymerase ribozyme fitness (log ratio) -2 or higher? GACCAAUCUGCCCUCAGAGCUCGAGAACAUCUUCGGAUGCGGAGGAGGCAGGCUUCGGUGGCGCGAUAGCGCCAACGUCCUCAACCUCCAAUGCAUCCCACCACAUGAUGAUGCCUGGAUAGCCUUGGUAUUUUG [A41G A118G G120U U130A]
label 1

For this variant, is measured polymerase ribozyme fitness (log ratio) -2 or higher? GAGCAAUCUGCCCUCAGAGCUCGAGAACAUCUUCGGAUGCAGAGGAGGCAGGCUUCGGUCGCGCGAUAGCGCCAACGUCCUCAACCUCCAAUGCAUCCCACCACAUGAUGAUGCCUGAAGAGCCUUGGUUUUUUG [C3G G60C]
label 1

For this variant, is measured polymerase ribozyme fitness (log ratio) -2 or higher? GACCAAUCUGCCCUCAGAGUUCGAGAACAUCUUCGGAUGUAGAGGAGGCAGGCUUCGGUUGCGCGAUAGCGCCAACGUCCUAAACCUCCAAUGCAACCCACCACAUGAUGAUGCCUGAAGAGCAUUGGUUUUUUG [C20U C40U G60U C82A U96A C124A]
label 1

For this variant, is measured polymerase ribozyme fitness (log ratio) -2 or higher? GACAAAUCUGCCCUCAGGGCUCGAGAACAUCUUCGGAUGCAGAGGAGGCAGGCUUCGGUGGCGCGAUAGCGCCAACGUCCUCAACCUCAAAUGCAUCCCCCCACAUGAUGAUACCUGAAGAGCUUUGGUUUUUUG [C4A A18G C89A A100C G113A C124U]
label 0

For this variant, is measured polymerase ribozyme fitness (log ratio) -2 or higher? GACCAAUCUGCCCUCAGAGCUCGAGAACAUCUUCGGAUGCAGAGGAGGCAGGCUUCGGUGGCGCGAUAACGCCAACGUCCUCAACCUCCAAUGCAUCCCACCACAUGAUGAUGCCUGAAGAGCAUUGGUUUUUUG [G69A C124A]
label 1

For this variant, is measured polymerase ribozyme fitness (log ratio) -2 or higher? GACCAAUCUGCCCUCAGAGCUCGAGAACAUCUUCGGAUGCAGAGGAGGCAGGCUUCGGUAGCGCGAUAGCGCCAACGUCCUCAAACUCCAAUGCAUCCCACCACAUGAUGAUGCCUGAAGAGCCUUGGUUUUUUG [G60A C85A]
label 1

meta.source: the RNAGym collection of RNA variant scans (doi:10.1073/pnas.2313332121)
